Measured DC50 of individual entries
Target: androgen receptor (AR) (Homo sapiens, UniProt P10275)
Construct: endogenous in cells; host or cells: VCAP
Sequence (P10275 1-920): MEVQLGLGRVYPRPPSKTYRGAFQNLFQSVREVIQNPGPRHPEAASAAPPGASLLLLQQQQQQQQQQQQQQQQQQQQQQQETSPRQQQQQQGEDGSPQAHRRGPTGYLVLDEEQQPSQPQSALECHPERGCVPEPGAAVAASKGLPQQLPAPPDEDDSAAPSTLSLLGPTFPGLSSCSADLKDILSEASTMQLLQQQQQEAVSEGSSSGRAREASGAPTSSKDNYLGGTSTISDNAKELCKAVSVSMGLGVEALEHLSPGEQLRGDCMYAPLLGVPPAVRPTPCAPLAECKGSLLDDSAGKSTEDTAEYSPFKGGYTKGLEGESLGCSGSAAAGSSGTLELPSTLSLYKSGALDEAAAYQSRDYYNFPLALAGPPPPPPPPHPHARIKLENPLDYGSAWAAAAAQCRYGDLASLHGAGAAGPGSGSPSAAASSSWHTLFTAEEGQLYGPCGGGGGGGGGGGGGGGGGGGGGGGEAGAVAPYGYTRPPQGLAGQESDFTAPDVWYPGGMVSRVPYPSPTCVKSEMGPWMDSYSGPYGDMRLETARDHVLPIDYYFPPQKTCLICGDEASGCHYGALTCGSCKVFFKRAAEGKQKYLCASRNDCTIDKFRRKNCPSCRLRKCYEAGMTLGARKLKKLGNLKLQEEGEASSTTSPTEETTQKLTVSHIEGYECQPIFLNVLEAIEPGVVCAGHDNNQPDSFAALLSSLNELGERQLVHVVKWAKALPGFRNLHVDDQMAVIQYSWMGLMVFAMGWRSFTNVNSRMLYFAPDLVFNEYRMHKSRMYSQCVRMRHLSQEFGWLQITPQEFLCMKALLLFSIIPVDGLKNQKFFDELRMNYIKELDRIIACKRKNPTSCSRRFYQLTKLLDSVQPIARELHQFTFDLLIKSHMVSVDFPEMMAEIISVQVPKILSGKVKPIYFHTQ
Experiment: AR degradation activity in VCAP cells (Western blot)
Format: cell-based
Settings: VCAP cell line, 24 hours after administration; DC50 = concentration for 50% target protein degradation
Give the value, in units of nM, as a plain number.

Recorded DC50, per entry:
molecule	DC50, nM
CC1(C)[C@H](NC(=O)c2ccc(N3CCC(CN4CCN(c5ccc6c(c5)C(=O)N(C5CCC(=O)NC5=O)C6=O)CC4)CC3)nn2)C(C)(C)[C@H]1Oc1ccc(C#N)c2ncccc12 (some centres unmarked) [Compound 2-19]	1
CC1(C)C(NC(=O)c2ccc(N3CCC(CN4CCN(c5ccc6c(c5)C(=O)N(C5CCC(=O)NC5=O)C6=O)CC4)CC3)cc2)C(C)(C)C1Oc1ccc(C#N)c2ncccc12 (centres unmarked) [Compound 2-21]	1.2
CC1(C)C(NC(=O)c2cnc(N3CCC(CN4CCN(c5ccc6c(c5)C(=O)N(C5CCC(=O)NC5=O)C6=O)CC4)CC3)nc2)C(C)(C)C1Oc1ccc(C#N)c2ncccc12 (centres unmarked) [Compound 2-18]	0.4
CC1(C)[C@H](NC(=O)c2ccc(N3CCC(CN4CCN(c5ccc6c(c5)CN([C@H]5CCC(=O)NC5=O)C6=O)CC4)CC3)cc2)C(C)(C)[C@H]1Oc1ccc(C#N)c2ncccc12 [Compound 2-49]	0.4

Now turn to the next molecule.
For CC1(C)C(NC(=O)c2ccc(N3CCC(CN4CCN(c5ccc6c(c5)C(=O)N(C5CCC(=O)NC5=O)C6=O)CC4)CC3)nc2)C(C)(C)C1Oc1ccc(C#N)c2ncccc12 (centres unmarked) [Compound 2-13] , what is its reported DC50? 0.7

====

Measured DC50 of individual entries
Biological target: androgen receptor (AR) (Homo sapiens, UniProt P10275, T878A)
Construct: endogenous in cells; host or cells: LNCAP
Sequence (P10275 1-920 T878A): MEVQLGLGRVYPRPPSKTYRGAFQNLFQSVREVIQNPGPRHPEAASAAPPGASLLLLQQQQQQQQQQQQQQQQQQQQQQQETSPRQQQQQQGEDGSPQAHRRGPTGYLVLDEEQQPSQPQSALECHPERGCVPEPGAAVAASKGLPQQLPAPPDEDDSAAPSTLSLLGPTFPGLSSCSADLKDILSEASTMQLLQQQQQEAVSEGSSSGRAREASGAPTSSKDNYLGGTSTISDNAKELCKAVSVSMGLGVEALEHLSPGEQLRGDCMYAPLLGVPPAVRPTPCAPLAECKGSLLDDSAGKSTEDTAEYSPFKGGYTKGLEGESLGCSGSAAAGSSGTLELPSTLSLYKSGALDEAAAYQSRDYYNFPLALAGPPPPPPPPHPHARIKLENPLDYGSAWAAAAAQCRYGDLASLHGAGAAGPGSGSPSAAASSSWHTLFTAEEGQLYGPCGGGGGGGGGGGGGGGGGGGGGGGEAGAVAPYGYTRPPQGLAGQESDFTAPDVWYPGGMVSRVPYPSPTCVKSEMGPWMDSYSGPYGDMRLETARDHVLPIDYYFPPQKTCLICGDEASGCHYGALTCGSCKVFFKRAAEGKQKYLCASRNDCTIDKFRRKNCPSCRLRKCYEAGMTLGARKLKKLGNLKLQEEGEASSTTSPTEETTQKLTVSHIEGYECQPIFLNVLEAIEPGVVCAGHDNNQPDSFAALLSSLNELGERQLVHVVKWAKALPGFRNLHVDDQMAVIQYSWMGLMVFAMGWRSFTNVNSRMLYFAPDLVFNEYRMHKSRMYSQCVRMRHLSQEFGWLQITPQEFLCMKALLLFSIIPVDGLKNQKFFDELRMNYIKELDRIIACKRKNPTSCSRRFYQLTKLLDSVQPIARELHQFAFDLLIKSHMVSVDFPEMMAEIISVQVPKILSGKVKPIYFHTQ
Test: AR degradation activity in LNCAP cells (Western blot)
Format: cell-based
Settings: LNCAP cell line, 24 hours after administration; DC50 = concentration for 50% target protein degradation
Give the value, in units of nM, as a plain number.

Recorded DC50, per entry:
compound	tested-system	measurement-name	recorded-number
CN(CC1CCN(c2ccc(C(=O)NC3C(C)(C)C(Oc4ccc(C#N)c5ncccc45)C3(C)C)cn2)CC1)C1CC(Oc2ccc3c(c2)C(=O)N(C2CCC(=O)NC2=O)C3=O)C1 (stereo not shown)	androgen receptor (AR) (Homo sapiens, UniProt P10275, T878A)	DC50	0.2
CC1(C)[C@H](NC(=O)c2ccc(N3CCC(CN4CCN(c5ccc6c(c5)CN([C@H]5CCC(=O)NC5=O)C6=O)CC4)CC3)cc2)C(C)(C)[C@H]1Oc1ccc(C#N)c2ncccc12	androgen receptor (AR) (Homo sapiens, UniProt P10275, T878A)	DC50	0.4
CC1(C)[C@H](NC(=O)c2ccc(N3CCC(CN4CCN(c5ccc6c(c5)CN(C5CCC(=O)NC5=O)C6=O)CC4)CC3)c(F)c2)C(C)(C)[C@H]1Oc1ccc(C#N)c2ncccc12 (stereo partly shown)	androgen receptor (AR) (Homo sapiens, UniProt P10275, T878A)	DC50	0.5
CC1(C)C(NC(=O)c2ccc(N3CCC(CN4CCN(c5ccc6c(c5)CN([C@H]5CCC(=O)NC5=O)C6=O)CC4)CC3)nc2)C(C)(C)C1Oc1ccc(C#N)c2ncccc12 (stereo partly shown)	androgen receptor (AR) (Homo sapiens, UniProt P10275, T878A)	DC50	0.1
CC1(C)C(NC(=O)c2cnc(N3CCC(CN4CCN(c5ccc6c(c5)C(=O)N(C5CCC(=O)NC5=O)C6=O)CC4)CC3)nc2)C(C)(C)C1Oc1ccc(C#N)c2ncccc12 (stereo not shown)	androgen receptor (AR) (Homo sapiens, UniProt P10275, T878A)	DC50	0.4

For CC1(C)[C@H](NC(=O)c2ccc(N3CCC(CN4CCN(c5ccc6c(c5)C(=O)N(C5CCC(=O)NC5=O)C6=O)CC4)CC3)c(F)c2)C(C)(C)[C@H]1Oc1ccc(C#N)c2ncccc12 (stereo partly shown) , what is its reported DC50? 1

For CC1(C)C(NC(=O)c2ccc(N3CCC(CCN4CCN(c5ccc6c(c5)C(=O)N(C5CCC(=O)NC5=O)C6=O)CC4)CC3)cc2)C(C)(C)C1Oc1ccc(C#N)c2ncccc12 (stereo not shown) , what is its reported DC50? 2

For CC1(C)C(NC(=O)c2ccc(N3CCC(CN4CCN(c5ccc6c(c5)C(=O)N(C5CCC(=O)NC5=O)C6=O)CC4)CC3)nc2)C(C)(C)C1Oc1ccc(C#N)c2ncccc12 (stereo not shown) , what is its reported DC50? 0.7

For `CC1(C)[C@H](NC(=O)c2ccc(N3CCC(CN4CCN(c5cc6c(cc5F)C(=O)N([C@H]5CCC(=O)NC5=O)C6)CC4)CC3)c(F)c2)C(C)(C)[C@H]1Oc1ccc(C#N)c2ncccc12` , what is its reported DC50? 0.4

For CC1(C)[C@H](NC(=O)c2ccc(N3CCC(CN4CCN(c5ccc6c(c5)C(=O)N(C5CCC(=O)NC5=O)C6=O)CC4)CC3)nn2)C(C)(C)[C@H]1Oc1ccc(C#N)c2ncccc12 (stereo partly shown) , what is its reported DC50? 0.5
